# Tested on: Escherichia coli TOP10;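 note: peptides expressed intracellularly from a pBAD plasmid library in pooled LB shake-flask culture, induced with 0.3% L-arabinose, DNA abundance read by NGS, three biological replicates, DESeq2 with apeglm shrinkage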
# Assay Overview: shrunken log2 fold change of peptide-encoding DNA abundance (4.5 h post-induction vs induction); higher = less antimicrobial activity (less host growth inhibition)
# Experimental Conditions: time post-induction: 4.5 h; library: site-saturation at positions 5, 18, 19, 20
Binning rule for recorded shrunken log2 fold change: lower band (below -0.4), central band (-0.4 to below 0.08), upper band (0.08 or more)

**Query** Band for the recorded shrunken log2 fold change of RRIRTRPPRLPRPRPRPAPNPRP ?
**Result** central band

**Query** Band for the recorded shrunken log2 fold change of RRIRIRPPRLPRPRPRPGVCPRP ?
**Result** central band

**Query** Band for the recorded shrunken log2 fold change of RRIRERPPRLPRPRPRPCCEPRP ?
**Result** central band

**Query** Band for the recorded shrunken log2 fold change of RRIRWRPPRLPRPRPRPQVMPRP ?
**Result** upper band

**Query** Band for the recorded shrunken log2 fold change of RRIRIRPPRLPRPRPRPKQYPRP ?
**Result** lower band

**Query** Band for the recorded shrunken log2 fold change of RRIRSRPPRLPRPRPRPEKIPRP ?
**Result** central band

**Query** Band for the recorded shrunken log2 fold change of RRIRGRPPRLPRPRPRPTLAPRP ?
**Result** upper band

**Query** Band for the recorded shrunken log2 fold change of RRIRCRPPRLPRPRPRPYNPPRP ?
**Result** lower band

**Query** Band for the recorded shrunken log2 fold change of RRIRPRPPRLPRPRPRPVYRPRP ?
**Result** central band

**Query** Band for the recorded shrunken log2 fold change of RRIRSRPPRLPRPRPRPEYGPRP ?
**Result** central band

**Query** Band for the recorded shrunken log2 fold change of RRIRVRPPRLPRPRPRPRSAPRP ?
**Result** upper band

**Query** Band for the recorded shrunken log2 fold change of RRIRWRPPRLPRPRPRPTEGPRP ?
**Result** central band

**Query** Band for the recorded shrunken log2 fold change of RRIRCRPPRLPRPRPRPSFFPRP ?
**Result** lower band

These data points were gathered from the supplement of paper PMC9112550.
